Kindly supply the reported TGI values for the records listed here.
System: DU-145 prostate
Assay: NCI tumour cell line growth inhibition, 48 h

Ask: Suppose we examine the compound Cc1ccc2c(=O)cc(-c3ccccc3)[nH]c2n1 ; what TGI value has been reported?
Reply: > 23.7 µM

Ask: Consider the compound O=C(O)[C@@H](Cc1ccccc1)NS(=O)(=O)c1ccc(-c2ccccc2)cc1 and give its measured TGI.
Reply: > 100 µM

Ask: # TGI lookup, item COc1cc(/C=[N+](\[O-])c2ccccc2Cl)ccc1OC(=S)S
Reply: > 100 µM

Ask: Look up TGI: O=C(Nc1cccc(Cl)c1)Nc1cc(C(F)(F)F)ccc1Cl
Reply: 10.2 µM

Ask: Item under review: O=C(COc1ccc(Cl)cc1Cl)NNc1ccc([N+](=O)[O-])cc1 . Reported TGI?
Reply: > 100 µM

Ask: Looking for the measured TGI of Cc1cc(C(=O)NOCCO)c(Nc2ccc(I)cc2F)n(C)c1=O , can you help?
Reply: > 100 µM

Ask: Which measured TGI value corresponds to CCOC(=O)/C(C(N)=O)=C(/O)c1cnccn1 ?
Reply: > 100 µM

Ask: Name the reported TGI value associated with the compound c1ccc2cc(Cn3c(-c4cccc5ccccc45)[n+](Cc4ccc5ccccc5c4)c4c5ccccc5c5ccccc5c43)ccc2c1
Reply: 1.68 µM

Ask: Can you look up the measured TGI of CN1CN(c2ccccc2)C2(CCN(C(=O)OC(C)(C)C)CC2)C1=O for me?
Reply: > 100 µM

Ask: Please give the measured TGI for this compound: CC(=O)Nc1ccc2c(c1)[nH]c(=O)c1cc(NC(C)=O)ccc12
Reply: > 100 µM
